The measured values listed here are drawn from the supplement of paper PMC10567573.

B1: RAB11A (parent)
chain: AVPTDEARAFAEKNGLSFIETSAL

Variants of: B1
TEST SUMMARY: protein stability index of a GFP-peptide fusion (GPS, HEK-293T) (PSI 1-6); higher = more stable;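 further: lentivirally expressed fusions sorted by FACS into six bins by GFP to DsRed ratio, PSI derived from sequencing read proportions per bin multiplied by bin number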
MEASUREMENT CONTEXT: c terminus: a fixed tail appended
As shown below, each of these variants has a reported protein stability index value.
Write the number on its own, no unit after it.

These solved cases illustrate the format of a correct answer.
sequence_entry="AYPTDEARAFAEKNGLSFIETSAL [V2Y]" measured_result=2.49
sequence_entry="AVPTDEARAFQEKNGLSFIETSAL [A11Q]" measured_result=2.21

protein stability index lookup needed for AVPTDEARAFAEKNGLSFIEKSAL [T21K] , thanks.
3.37
